test system: Plasmodium berghei; assay: Antimalarial activity against trophozoite-induced Plasmodium berghei infected in mouse assessed as change in mean survival time at 20 mg/kg, sc single dose after 72 hrs of infection; type: functional; settings: route subcutaneous
observable: log10 of MST (log10 of the value in days)

>  <molecule>
COc1ccc(S(=O)(=O)c2ccc3nc(N)nc(N)c3c2)cc1

>  <measured on>
Plasmodium berghei

>  <readout number>
1.06

$$$$
>  <molecule>
Nc1nc(N)c2cc([S+]([O-])c3cccc(C(F)(F)F)c3)ccc2n1 (configuration not stated)

>  <measured on>
Plasmodium berghei

>  <readout number>
1.33

$$$$
>  <molecule>
CC1(C)N=C(N)N=C(N)N1c1ccc(Cl)cc1.Cl [CHLORCYCLOGUANIL HYDROCHLORIDE]

>  <measured on>
Plasmodium berghei

>  <readout number>
0.90

$$$$
>  <molecule>
Nc1nc(N)c2cc(S(=O)(=O)c3ccc(Cl)c(Cl)c3)ccc2n1

>  <measured on>
Plasmodium berghei

>  <readout number>
1.05

$$$$
>  <molecule>
Nc1nc(N)c2cc([S+]([O-])c3c(F)c(F)cc(F)c3F)ccc2n1 (configuration not stated)

>  <measured on>
Plasmodium berghei

>  <readout number>
-0.05

$$$$
>  <molecule>
Nc1nc(N)c2c(Cl)c(S(=O)(=O)c3cccc(C(F)(F)F)c3)ccc2n1

>  <measured on>
Plasmodium berghei

>  <readout number>
-0.15

$$$$
>  <molecule>
CCc1nc(N)nc(N)c1-c1ccc(Cl)cc1

>  <measured on>
Plasmodium berghei

>  <readout number>
0.89

$$$$
>  <molecule>
Nc1nc(N)c2cc(S(=O)(=O)c3cccc(-c4ccccc4)c3)ccc2n1

>  <measured on>
Plasmodium berghei

>  <readout number>
1.34

$$$$
>  <molecule>
COc1cccc(S(=O)(=O)c2ccc3nc(N)nc(N)c3c2)c1

>  <measured on>
Plasmodium berghei

>  <readout number>
0.59

$$$$
>  <molecule>
Nc1nc(N)c2cc([S+]([O-])c3ccccc3)ccc2n1 (configuration not stated)

>  <measured on>
Plasmodium berghei

>  <readout number>
0.69

$$$$
>  <molecule>
Nc1nc(N)c2cc(S(=O)(=O)c3cccc(C(F)(F)F)c3)ccc2n1

>  <measured on>
Plasmodium berghei

>  <readout number>
1.14

$$$$
>  <molecule>
Nc1nc(N)c2c(Cl)c(S(=O)(=O)c3ccc(F)cc3)ccc2n1

>  <measured on>
Plasmodium berghei

>  <readout number>
0.99

$$$$
>  <molecule>
Nc1nc(N)c2c(Cl)c([S+]([O-])c3ccc(F)cc3)ccc2n1 (configuration not stated)

>  <measured on>
Plasmodium berghei

>  <readout number>
0.61

$$$$
>  <molecule>
Nc1nc(N)c2cc([S+]([O-])c3cccc(-c4ccccc4)c3)ccc2n1 (configuration not stated)

>  <measured on>
Plasmodium berghei

>  <readout number>
1.05

$$$$
>  <molecule>
Nc1nc(N)c2c(Cl)c([S+]([O-])c3ccccc3)ccc2n1 (configuration not stated)

>  <measured on>
Plasmodium berghei

>  <readout number>
0.93

$$$$
>  <molecule>
Nc1nc(N)c2cc([S+]([O-])c3ccc(F)cc3)ccc2n1 (configuration not stated)

>  <measured on>
Plasmodium berghei

>  <readout number>
0.95

$$$$
>  <molecule>
Nc1nc(N)c2cc(S(=O)(=O)c3cc(Cl)cc(Cl)c3)ccc2n1

>  <measured on>
Plasmodium berghei

>  <readout number>
0.99

$$$$
>  <molecule>
Nc1nc(N)c2c(Cl)c([S+]([O-])c3ccc4ccccc4c3)ccc2n1 (configuration not stated)

>  <measured on>
Plasmodium berghei

>  <readout number>
0.97

$$$$
>  <molecule>
Nc1nc(N)c2cc([S+]([O-])c3ccccc3-c3ccccc3)ccc2n1 (configuration not stated)

>  <measured on>
Plasmodium berghei

>  <readout number>
-0.52

$$$$
>  <molecule>
Nc1nc(N)c2cc([S+]([O-])c3ccc(Br)cc3)ccc2n1 (configuration not stated)

>  <measured on>
Plasmodium berghei

>  <readout number>
1.13

$$$$
>  <molecule>
Nc1nc(N)c2cc(S(=O)(=O)c3ccccc3)ccc2n1

>  <measured on>
Plasmodium berghei

>  <readout number>
0.89

$$$$
>  <molecule>
Nc1nc(N)c2c(Cl)c([S+]([O-])c3cccc(C(F)(F)F)c3)ccc2n1 (configuration not stated)

>  <measured on>
Plasmodium berghei

>  <readout number>
-0.30

$$$$
